# credit: patent US10344037B2

Assay: in vivo
Conditions: SCID, mouse, in vivo, ip
measured-metric: MTD (mg/kg)
Number only, in mg/kg; omit the unit.

MTD for CC[C@@]1(O)C(=O)OCc2c1cc1n(c2=O)Cc2cc3c(CN(C)C)c(O)ccc3nc2-1 is 4

====

Tested on: HCT116-C8 cells
Test: cells
Format: cell-based, human
measured-metric: IC50 (nM)
Report the value in nM with no unit label.

> print(dat)
                                   compound  measured.metric  value.observed
1  CC[C@@]1(O)C(=O)OCc2c1cc1n(c2=O)Cc2cc3cc4c(cc3nc2-1)OCO4 [FL118]             IC50          0.0937

Looking up CCc1c2c(nc3ccc(O)cc13)-c1cc3c(c(=O)n1C2)COC(=O)[C@]3(O)CC [SN-38] , I found its IC50 recorded as 8.47

====

Tested on: HCT116 colon cancer cells
Assay: cells
Assay type: cell-based, human
measured-metric: pIC50
Scale explanation: pIC50 corresponds to minus log10 of a concentration expressed in moles per litre.

> print(dat)
                               smiles.entry  measured.metric  value.observed
1  CC[C@@]1(O)C(=O)OCc2c1cc1n(c2=O)Cc2cc3cc4c(cc3nc2-1)OCO4            pIC50           10.32

For CCc1c2c(nc3ccc(O)cc13)-c1cc3c(c(=O)n1C2)COC(=O)[C@]3(O)CC the compound record lists pIC50 as 9.72

====

Tested on: HCT116-C8 cells
Assay: cells
Format: cell-based, human
Conditions: Homo sapiens
measured-metric: IC50 (nM)
API: value field is a number in nM; no unit string.

# IC50 of CC[C@@]1(O)C(=O)OCc2c1cc1n(c2=O)Cc2cc3c(CN(C)C)c(O)ccc3nc2-1 = 379
